assay: qHTS of pediatric cancer cell lines to identify multiple opportunities for drug repurposing: Primary screen for NB-EBc1 cells (AID 1347095); conditions: NB-EBc1 neuroblastoma viability, CellTiter-Glo luminescence, 48 h; series mostly up to 46 µM
Records with an inconclusive call do not appear. The source made the active and inactive calls. Calls come from the whole dose curve; as a rule, active = well fitted cell-killing curve with a large enough effect; inconclusive = small, poorly fitted or top-dose-only effect; inactive = no such curve, though single readings can be large or run the other way.
Permitted responses: active, inactive

- molecule: "CCOC(=O)C1=C[C@]2(CC)CCCN3CCc4c(n1c1ccccc41)[C@@H]32"
  discreteLabel: "inactive"
- molecule: "CCCCNc1cc(C(=O)O)cc(S(N)(=O)=O)c1Oc1ccccc1"
  discreteLabel: "inactive"
- molecule: "CNC[C@H](O)c1cccc(O)c1"
  discreteLabel: "inactive"

stdin: Identify the outcome logged in this assay for the molecule shown: `COc1ccc(-c2oc3cc(OC)ccc3c2C(=O)c2ccc(C#N)cc2)cc1`
stdout: active

stdin: And `Cc1c(CN2CCN(C(=O)C(C)C)CC2)sc2c(N3CCOCC3)nc(-c3cnc(N)nc3)nc12` ?
stdout: active

stdin: And `CCOc1cc(N2CCC(O)CC2)ccc1Nc1ncc2c(n1)N(C)c1ccccc1C(=O)N2C` ?
stdout: active

Reference source for all entries: PubChem BioAssay (NCATS)
